Target: T1, Fc tagged human PDL1 (human, UniProt Q9NZQ7 19-239)
T1 construct: Bought (Sino Biological, cat. 10084-H02H); captured on the SPR chip; also called PDL1-Fc chimeric protein
Assay: SPR
Experimental: Affinity to PDL1 of the different species was determined by SPR measurements using a Biacore T200 device (GE Healthcare). […] Three-fold serial dilutions of the molecules specific for PDL1 (0.12-90 nM) were injected into the flow cells for three minutes and dissociation was monitored for 10 minutes. […] The apparent dissociation (kd) and association (kₐ) rate constants and the apparent dissociation equilibrium constant (KD) were calculated using one-to-one Langmuir binding model. […]
Reported Metric: pKd
pKd is a log-scale quantity: -log10 of the concentration expressed in molar.

Quick one: pKd of PRO1013 (scFv, anti-PDL1 scFv; also called 37-20-B03 sc02 scFv; 37-20-B03 CDR, VH1) scFv: DIQMTQSPSSLSASVGDRVTITCQASQSIGTYLAWYQQKPGKAPKLLIYRAFILASGVPSRFSGSGSGTDFTLTISSLQPEDFATYYCQSNFYSDSTTIGPNAFGTGTKVTVLGGGGGSGGGGSGGGGSGGGGSQVQLVQSGAEVKKPGASVKVSCKASGFSFNSDYWIYWVRQAPGQGLEWMGSIYGGSSGNTQYASWAQGRVTMTRDTSISTAYMELSSLRSEDTAVYYCARGYVDYGGATDLWGQGTLVTVSS ?
10.35

# iterate: PRO908 (scFv, also called scFv of 37-20-B03 sc01) scFv: DIQMTQSPSSLSASVGDRVTITCQASQSIGTYLAWYQQKPGKAPKLLIYRAFILASGVPSRFSGSGSGTDFTLTISSLQPEDFATYYCQSNFYSDSTTIGPNAFGTGTKVTVLGGGGGSGGGGSGGGGSGGGGSQVQLQESGPGLVKPSETLSLTCKVSGFSFNSDYWIYWIRQPPGKGLEWIGSIYGGSSGNTQYASWAQGRVTISVDSSKNQFSLKLSSVTAADTAVYYCARGYVDYGGATDLWGQGTLVTVSS
11.23
